Catalogue of melting point readings, one per entry.

Examples with answers:
>  <Compound>
CCC(=O)NCC1CC1c1cccc2nscc12 (centres unmarked)

>  <melting point>
84 to 86 °C

$$$$
>  <Compound>
CCC(=O)NCC1CC1c1cccc2nc(C(F)(F)F)cn12 (centres unmarked)

>  <melting point>
148 to 151 °C

$$$$
>  <Compound>
CC(=O)NC[C@@H]1C[C@H]1c1cccn2nc(C)cc12 [Example 44]

>  <melting point>
100 to 101 °C

$$$$
>  <Compound>
Cn1cc2c([C@H]3C[C@@H]3CNC(=O)OC(C)(C)C)cccc2n1

>  <melting point>
141 to 142 °C

$$$$

Now look at this entry.
Per the records, this compound ( CC(=O)NCC1CC1c1c(C#N)ccc2nn(C)cc12 (centres unmarked) ) has melting point equal to 189 to 192 °C

###

Catalogue of compounds with associated melting point

Solved entries (count: 4):
>  <Compound>
CC(=O)NCC1CC1c1cccc2nc(C)nn12 (centres unmarked)

>  <melting point>
124 to 126 °C

$$$$
>  <Compound>
CC(=O)NCC1CC1c1c(C2CC2)ccc2nn(C)cc12 (centres unmarked)

>  <melting point>
102 to 103 °C

$$$$
>  <Compound>
CC(=O)NC[C@@H]1C[C@H]1c1c(F)ccc2nn(C)cc12 [Example 25]

>  <melting point>
120 °C

$$$$
>  <Compound>
CC(=O)NCC1CC1c1c(-c2cccnc2)ccc2nn(C)cc12 (centres unmarked)

>  <melting point>
136 to 138 °C

$$$$

Continue with the next compound.
The recorded melting point for CC(=O)NCC1CC1c1cccc2nc(C)cn12 (centres unmarked) is 170 to 171 °C

###

Entries and their melting point values follow.

Reference set (5 entries):
>  <Molecule>
CC(=O)NC[C@@H]1C[C@H]1c1cccc2nn(C)c(F)c12 [Example 19]

>  <melting point>
138 to 139 °C

$$$$
>  <Molecule>
CC(=O)NC[C@@H]1C[C@H]1c1cccn2nc(C)cc12 (relative stereo) [Example 5]

>  <melting point>
114 to 115 °C

$$$$
>  <Molecule>
Cc1cc2c([C@@H]3C[C@H]3CNC(=O)OC(C)(C)C)cccn2n1 [Example 42]

>  <melting point>
118 to 119 °C

$$$$
>  <Molecule>
CCC(=O)NC[C@@H]1C[C@H]1c1c(F)ccc2nn(C)cc12 (relative stereo)

>  <melting point>
158 to 159 °C

$$$$
>  <Molecule>
Cc1cc2c([C@@H]3C[C@H]3CNC(=O)C(F)(F)F)cccn2n1 (relative stereo)

>  <melting point>
136 to 138 °C

$$$$

Entry CCC(=O)NCC1CC1c1cccc2nc(C)sc12 (stereo not shown) , melting point reported as 59 to 61 °C

Record CCn1cc2c(C3CC3CNC(C)=O)cccc2n1 (stereo not shown) . Reported melting point: 155 to 159 °C

// sample CC(=O)NC[C@@H]1C[C@H]1c1c(F)ccc2nn(C)cc12 (relative stereo) [Example 23] , its melting point was 157 to 159 °C

The reported value for CC(=O)NC[C@H]1C[C@@H]1c1cccn2nc(C)cc12 in terms of melting point is 69 to 70 °C

melting point measured on Cn1cc2c([C@@H]3C[C@H]3CNC(=O)OC(C)(C)C)cccc2n1 [Example 9] = 140 to 142 °C

Entry CCC(=O)NCC1CC1c1cccc2nc(C)nn12 (stereo not shown) , melting point reported as 118 to 119 °C

Kindly note the recorded melting point for CC(=O)NC[C@@H]1C[C@H]1c1cccc2nn(C)cc12 (relative stereo) [Example 1] , which is 153 to 154 °C

Per the records, this molecule ( Cc1cc2c([C@H]3C[C@@H]3CNC(=O)C3CC3)cccn2n1 ) has melting point equal to 124 to 128 °C

# molecule CCC(=O)NCC1CC1c1cccc2nc(C)cn12 (stereo not shown) ; its melting point = 88 to 90 °C

Lookup result for CC(=O)NCC1CC1c1c(C)ccc2nn(C)cc12 (stereo not shown) ; measured melting point: 139 to 140 °C

The molecule identified as Cc1cc2c([C@@H]3C[C@H]3CNC(=O)c3ccccc3)cccn2n1 (relative stereo) registered its melting point at 112 to 113 °C

What the record says about CCC(=O)NC[C@@H]1C[C@@H]1c1cccc2nn(C)cc12 (relative stereo) : melting point is 155 to 156 °C

Lab book: melting point of CC(=O)NCC1CC1c1ccc(F)c2nn(C)cc12 (stereo not shown) noted as 147 to 148 °C

For reference, reported melting point for CCC(=O)NCC1CC1c1cccc2nnsc12 (stereo not shown) stands at 67 to 69 °C

###

Some compounds, each annotated with its measured melting point.

>  <Compound>
Cn1cc2c([C@@H]3C[C@H]3CNC(=O)c3ccc(Br)cc3)cccc2n1

>  <melting point>
140 to 142 °C

$$$$
>  <Compound>
Cc1cc2c([C@@H]3C[C@H]3CNC(=O)C3CC3)cccn2n1 [Example 49]

>  <melting point>
127 to 129 °C

$$$$
>  <Compound>
CC(=O)NCC1CC1c1cccc2nc(C(F)(F)F)cn12 (centres unmarked)

>  <melting point>
135 to 137 °C

$$$$
>  <Compound>
CC(=O)NCC1CC1c1c(Cl)ccc2nn(C)cc12 (centres unmarked)

>  <melting point>
149 to 150 °C

$$$$
>  <Compound>
CC(=O)NCC1CC1c1cccc2nscc12 (centres unmarked)

>  <melting point>
96 to 97 °C

$$$$
>  <Compound>
CC(=O)NCC1CC1c1cccc2nnsc12 (centres unmarked)

>  <melting point>
81 to 82 °C

$$$$

Measured melting point, Cn1cc2c([C@@H]3C[C@H]3CNC(=O)OC(C)(C)C)cccc2n1 (relative stereo) [Example 7] : 120 to 121 °C

// melting point value for CC(=O)NCC1CC1c1ccc(Cl)c2nn(C)cc12 (centres unmarked) : 153 to 155 °C

Entry CCC(=O)NC[C@@H]1C[C@H]1c1cccn2nc(C)cc12 (relative stereo) , melting point reported as 95 to 98 °C

melting point recorded for this compound, COc1ccc2nn(C)cc2c1C1CC1CNC(C)=O (centres unmarked) , is 104 to 105 °C

The compound listed as CCC(=O)NC[C@H]1C[C@@H]1c1cccc2nn(C)cc12 has a reported melting point of 79 to 80 °C

According to the records, this compound Cc1cc2c([C@@H]3C[C@H]3CNC(=O)OC(C)(C)C)cccn2n1 (relative stereo) [Example 40] displays melting point of 105 to 107 °C

The compound CC(=O)NCC1CC1c1cccn2nc(C)nc12 (centres unmarked) showed melting point equal to 116 to 118 °C

melting point reading for CC(=O)NCC1CC1c1c(Br)ccc2nn(C)cc12 (centres unmarked) : 135 to 137 °C

Record summary for CC(=O)NCC1CC1c1c(-c2ccccc2)ccc2nn(C)cc12 (centres unmarked) : reported melting point = 156 to 158 °C

// field: melting point; key: CC(=O)NC[C@@H]1C[C@H]1c1cccc2nn(C)cc12 [Example 11] ; value = 145 to 147 °C

Documented melting point of CC(=O)NC[C@H]1C[C@@H]1c1c(F)ccc2nn(C)cc12 : 120 °C

Form: compound = CC(=O)NCC1CC1c1cccc2nc(C)sc12 (centres unmarked) ; melting point = 96 to 98 °C

In plain terms, CCC(=O)NCC1CC1c1c(Cl)ccc2nn(C)cc12 (centres unmarked) has a documented melting point of 152 to 153 °C

melting point in this record for CCC(=O)NCC1CC1c1cccc2nn(CC)cc12 (centres unmarked) : 114 to 115 °C
